Biological target: Cytochrome P450 1A2 (Homo sapiens, UniProt P05177)
Sequence (P05177 whole entry): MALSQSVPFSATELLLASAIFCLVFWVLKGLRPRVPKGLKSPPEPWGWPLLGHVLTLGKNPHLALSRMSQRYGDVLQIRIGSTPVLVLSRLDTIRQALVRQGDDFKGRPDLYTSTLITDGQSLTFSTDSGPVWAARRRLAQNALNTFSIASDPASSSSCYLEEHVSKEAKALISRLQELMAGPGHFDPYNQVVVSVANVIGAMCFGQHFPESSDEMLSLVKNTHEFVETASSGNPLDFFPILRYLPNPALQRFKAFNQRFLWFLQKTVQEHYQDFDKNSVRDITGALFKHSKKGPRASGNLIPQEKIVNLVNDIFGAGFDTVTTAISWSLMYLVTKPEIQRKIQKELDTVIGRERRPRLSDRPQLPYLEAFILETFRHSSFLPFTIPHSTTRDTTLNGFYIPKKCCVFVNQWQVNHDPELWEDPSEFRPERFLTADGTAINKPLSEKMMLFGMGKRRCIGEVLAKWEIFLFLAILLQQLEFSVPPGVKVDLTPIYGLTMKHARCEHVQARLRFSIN
Observed property: IC50

// query # return recorded IC50 for entry `CC(C)(C)C(=O)NCCC1CCN(c2ncnc3cc(C(N)=O)sc23)CC1`
// result > 50 µM

---

Assay: Intrinsic clearance in human liver microsomes measured per mg of protein
Format: ADME, Microsome
Conditions: read-out: CLH
Observed property: microsomal CLint (µL/min/mg)
Please reply with the bare figure in µL/min/mg and do not write the unit itself.

// query # return recorded microsomal CLint for entry `CC(C)(C)C(=O)NCCC1CCN(c2ncnc3cc(C(N)=O)sc23)CC1`
// result 15.8

---

Target: Cytochrome P450 3A4 (Homo sapiens)
Sequence (P08684 whole entry): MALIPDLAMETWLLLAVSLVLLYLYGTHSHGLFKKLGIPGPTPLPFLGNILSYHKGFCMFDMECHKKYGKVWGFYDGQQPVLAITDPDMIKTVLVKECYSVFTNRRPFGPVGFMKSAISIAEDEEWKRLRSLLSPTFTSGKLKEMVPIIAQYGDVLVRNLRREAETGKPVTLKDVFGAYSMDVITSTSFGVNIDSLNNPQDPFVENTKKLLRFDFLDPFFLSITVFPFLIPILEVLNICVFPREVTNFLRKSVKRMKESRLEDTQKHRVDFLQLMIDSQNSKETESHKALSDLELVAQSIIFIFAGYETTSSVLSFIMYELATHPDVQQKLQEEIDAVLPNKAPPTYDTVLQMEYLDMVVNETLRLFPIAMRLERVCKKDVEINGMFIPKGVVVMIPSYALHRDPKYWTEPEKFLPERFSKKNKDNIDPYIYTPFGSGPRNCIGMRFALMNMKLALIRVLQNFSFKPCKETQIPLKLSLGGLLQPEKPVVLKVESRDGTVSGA
Observed property: IC50

// query Please tell me the measured IC50 for `CC(C)(C)C(=O)NCCC1CCN(c2ncnc3cc(C(N)=O)sc23)CC1` ; system: Cytochrome P450 3A4 (Homo sapiens).
// result > 50 µM

---

Below, each entry is listed with its recorded IC50.
Target: NAD-dependent protein deacetylase sirtuin-2 (Homo sapiens, UniProt Q8IXJ6)
Sequence (Q8IXJ6 whole entry): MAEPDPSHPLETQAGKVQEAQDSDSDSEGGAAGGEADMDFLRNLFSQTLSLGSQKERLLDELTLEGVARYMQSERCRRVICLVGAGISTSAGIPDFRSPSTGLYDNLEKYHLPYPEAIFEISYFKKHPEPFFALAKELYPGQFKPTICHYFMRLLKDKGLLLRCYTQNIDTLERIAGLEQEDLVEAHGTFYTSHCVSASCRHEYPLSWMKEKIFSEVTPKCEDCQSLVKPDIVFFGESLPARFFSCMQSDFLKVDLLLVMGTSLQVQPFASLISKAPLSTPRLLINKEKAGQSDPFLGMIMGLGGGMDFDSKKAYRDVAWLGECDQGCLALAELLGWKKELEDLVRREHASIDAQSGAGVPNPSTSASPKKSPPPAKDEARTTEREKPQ
Please reply with the bare figure in nM and do not write the unit itself.

{"Smiles input": "CS(=O)(=O)NCCC1CCN(c2ncnc3cc(C(N)=O)sc23)CC1", "Observed property": "IC50", "Unit string": "nM", "Number": 1.1}

# evaluate next
// query Please tell me the measured IC50 for `CCNC(=O)c1cccc(C(=O)NCCC2CCN(c3ncnc4cc(C(N)=O)sc34)CC2)c1` ; system: NAD-dependent protein deacetylase sirtuin-2 (Homo sapiens, UniProt Q8IXJ6).
// result 1.3
